- System: 633275-114-R-J1-PDC complex spheroids, viability
- procedure summary: Anticancer human tumor 633275-114-R-J1-PDC patient-derived endometrial adenocarcinoma cell line growth inhibition [GQUAD]
- run parameters: curve of first compound; second compound 0.316 µM
endpoint: IC50

# count of solved cases: 3
compound	IC50
O=C(NO)c1cnc(N2CCN(S(=O)(=O)c3ccc4ccccc4c3)CC2)nc1 + Cc1[nH]c2ccc(F)cc2c1-c1nc2c3cccnc3c3ncccc3c2[nH]1	574 nM
O=c1[nH]cc(F)c(=O)[nH]1 + Cc1cnc(CNC(=O)c2c(=O)c3ccc(N4CCCN(C)CC4)nc3n3c2sc2ccccc23)cn1	< 31.6 nM
COc1cc(C2c3cc4c(cc3C(OC3OC5COC(C)OC5C(O)C3O)C3COC(=O)C23)OCO4)cc(OC)c1O (stereo unspecified) + Cc1cnc(CNC(=O)c2c(=O)c3ccc(N4CCCN(C)CC4)nc3n3c2sc2ccccc23)cn1	< 31.6 nM

List IC50 for every entry below, keeping the order given.
1. COc1cccc2c1C(=O)c1c(O)c3c(c(O)c1C2=O)CC(O)(C(=O)CO)CC3OC1CC(N)C(O)C(C)O1 (stereo unspecified) + Cc1[nH]c2ccc(F)cc2c1-c1nc2c3cccnc3c3ncccc3c2[nH]1
2. C#Cc1c(F)ccc2cc(O)cc(-c3ncc4c(N5CC6CCC(C5)N6)nc(OCC56CCCN5CC(F)C6)nc4c3F)c12 (stereo unspecified) + Cc1cnc(CNC(=O)c2c(=O)c3ccc(N4CCCN(C)CC4)nc3n3c2sc2ccccc23)cn1
3. CC(=O)O[C@H]1C(=O)[C@@]2(C)[C@H]([C@H](OC(=O)c3ccccc3)[C@]3(O)C[C@H](OC(=O)[C@H](O)[C@@H](NC(=O)c4ccccc4)c4ccccc4)C(C)=C1C3(C)C)[C@]1(OC(C)=O)CO[C@@H]1C[C@@H]2O + Cc1cnc(CNC(=O)c2c(=O)c3ccc(N4CCCN(C)CC4)nc3n3c2sc2ccccc23)cn1
4. O=c1[nH]cc(F)c(=O)[nH]1 + Cc1[nH]c2ccc(F)cc2c1-c1nc2c3cccnc3c3ncccc3c2[nH]1
5. Cc1cccc(N(C)C(=O)C2C(O)CCN2c2nc(C)cc(C(F)(F)F)c2C#N)c1 (stereo unspecified) + CN(C)c1ccc(Nc2c3ccc(NC(=O)CCN4CCCC4)cc3nc3cc(NC(=O)CCN4CCCC4)ccc23)cc1
6. O=C(c1cc(Cc2n[nH]c(=O)c3ccccc23)ccc1F)N1CCN(C(=O)C2CC2)CC1 + Cc1cnc(CNC(=O)c2c(=O)c3ccc(N4CCCN(C)CC4)nc3n3c2sc2ccccc23)cn1
7. Cn1ncnc1[C@H]1c2n[nH]c(=O)c3cc(F)cc(c23)N[C@@H]1c1ccc(F)cc1 + Cc1cnc(CNC(=O)c2c(=O)c3ccc(N4CCCN(C)CC4)nc3n3c2sc2ccccc23)cn1
8. Cc1cccc(N(C)C(=O)C2C(O)CCN2c2nc(C)cc(C(F)(F)F)c2C#N)c1 (stereo unspecified) + Cc1[nH]c2ccc(F)cc2c1-c1nc2c3cccnc3c3ncccc3c2[nH]1

stdout:
1. 82.3 nM
2. < 31.6 nM
3. < 31.6 nM
4. > 10000 nM
5. > 10000 nM
6. < 31.6 nM
7. < 0.999 nM
8. > 10000 nM

* * *

- Test system: 633275-114-R-J1-PDC complex spheroids, viability
- procedure summary: Anticancer human tumor 633275-114-R-J1-PDC cell line growth inhibition [GQUAD];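 note: spheroids exposed to the agents for seven days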;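 for viability, T/C: percent of DMSO vehicle control viability which is 100%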
- run parameters: second compound 1 µM; first compound 10 µM; stronger effect = lower value
endpoint: viability, T/C (%)
One number for each entry, in %.

List viability, T/C for every entry below, keeping the order given.
1. Cc1cccc(N(C)C(=O)C2C(O)CCN2c2nc(C)cc(C(F)(F)F)c2C#N)c1 (stereo not given) + Cc1cnc(CNC(=O)c2c(=O)c3ccc(N4CCCN(C)CC4)nc3n3c2sc2ccccc23)cn1
2. COc1ncnc(C2CC2)c1-c1ncc2cnn(Cc3ccc(-c4nc(C(F)(F)F)cn4C(C)C)cc3)c2n1 + CN(C)c1ccc(Nc2c3ccc(NC(=O)CCN4CCCC4)cc3nc3cc(NC(=O)CCN4CCCC4)ccc23)cc1
3. O=C(c1cc(Cc2n[nH]c(=O)c3ccccc23)ccc1F)N1CCN(C(=O)C2CC2)CC1 + CN(C)c1ccc(Nc2c3ccc(NC(=O)CCN4CCCC4)cc3nc3cc(NC(=O)CCN4CCCC4)ccc23)cc1
4. COc1ccc([C@@H](O)c2cc(-c3ncnc4cc(N5CCOCC5)ccc34)c(F)cc2Cl)nn1 + Cc1[nH]c2ccc(F)cc2c1-c1nc2c3cccnc3c3ncccc3c2[nH]1
5. CC1COCCN1c1cc(C2(S(C)(=N)=O)CC2)nc(-c2ccnc3[nH]ccc23)n1 (stereo not given) + CN(C)c1ccc(Nc2c3ccc(NC(=O)CCN4CCCC4)cc3nc3cc(NC(=O)CCN4CCCC4)ccc23)cc1

stdout:
1: 37.7; 2: 92.3; 3: 47.8; 4: 33.9; 5: 33.7
